- target.desc: Purified recombinant EV CrmD protein (ectromelia virus)
Below is a list of entries, each paired with its recorded Kd value.
Only the number, expressed in nM, is required.

Completed entries (count: 5):
Data request: Requested read-out: Kd. Entry: hCXCL13 (ligand) chemokine: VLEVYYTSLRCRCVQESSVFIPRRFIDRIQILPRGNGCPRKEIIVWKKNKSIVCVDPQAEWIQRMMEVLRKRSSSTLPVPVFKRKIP
Data returned: 7.4

Data request: Param item: hCCL28 (ligand) chemokine: SEAILPIASSCCTEVSHHISRRLLERVNMCRIQRADGDCDLAAVILHVKRRRICVSPHNHTVKQWMKVQAAKKNGKGNVCHRKKHHGKRNSNRAHQGKHETYGHKTPY
Data returned: 2.8

Data request: Param item: hCXCL14 (ligand) chemokine: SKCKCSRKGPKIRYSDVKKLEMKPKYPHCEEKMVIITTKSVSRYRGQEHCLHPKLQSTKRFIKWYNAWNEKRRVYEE
Data returned: 7.1

Data request: Param item: mCCL25 (ligand) QGAFEDCCLGYQHRIKWNVLRHARNYHQQEVSGSCNLRAVRFYFRQKVVCGNPEDMNVKRAMRILTARKRLVHWKSASDSQTERKKSNHMKSKVENPNSTSVRSATLGHPRMVMMPRKTNN
Data returned: 3.2

Data request: Param item: mCXCL14 (ligand) SKCKCSRKGPKIRYSDVKKLEMKPKYPHCEEKMVIVTTKSMSRYRGQEHCLHPKLQSTKRFIKWYNAWNEKRRVYEE
Data returned: 3.2

Further cases:
Data request: Requested read-out: Kd. Entry: mCCL27 (ligand) LPLPSSTSCCTQLYRQPLPSRLLRRIVHMELQEADGDCHLQAVVLHLARRSVCVHPQNRSLARWLERQGKRLQGTVPSLNLVLQKKMYSHPQQQN
Data returned: 8.5
